Test system: unstriped musculature (isolated rat stomach)
EXPERIMENTAL_PROTOCOL: Effect on the unstriped musculature (isolated rat stomach according to Vane)
Type: cell-based, rat (Wistar)
DETAILS: isolated rat stomach, 37° C; activity relative to contraction after 600 ng/ml PGA2; Table 1; read-out: Action on the unstriped musculature (isolated rat stomach) ED50
Label t when EC50 < 0.5 µg/mL; otherwise f.

> print(dat)
                                   molecule  class.assignment
1  CCCCCC(O)/C=C/C1CCC(=O)C1CCC(C)CCCC(=O)O (mixture of isomers) [Example 5]                 t
2  CCCCCC(O)/C=C/C1CCC(=O)C1CCCCCCC(=O)O (mixture of isomers) [Example 4]                 t
3  CCCCCC(O)/C=C/C1CCC(=O)C1CCCCC(C)CC(=O)O (mixture of isomers) [Example 7]                 f
4  CCCCCC(O)/C=C/C1CCC(=O)C1CCCCCC(C)C(=O)O (mixture of isomers) [Example 8]                 f
